- Assayed Target: ligand-binding domain (LBD) of LXRα (Homo sapiens)
- Construct: expressed in transfected cells; host or cells: HEK293
- Sequence (Q13133 155-447): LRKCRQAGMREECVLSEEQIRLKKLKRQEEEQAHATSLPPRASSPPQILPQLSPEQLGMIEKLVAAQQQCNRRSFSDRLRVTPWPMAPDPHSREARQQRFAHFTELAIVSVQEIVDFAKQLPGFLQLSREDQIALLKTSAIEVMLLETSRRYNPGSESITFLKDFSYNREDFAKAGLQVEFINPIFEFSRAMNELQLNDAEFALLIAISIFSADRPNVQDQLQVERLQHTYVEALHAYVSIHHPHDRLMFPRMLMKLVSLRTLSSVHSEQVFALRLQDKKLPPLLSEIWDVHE
- Test Details: LXR Gal4 reporter transient transfection assay (LBD-M2H Gal4α)
- Assay type: cell-based
- Applied Conditions: HEK293 cells, LXRα LBD; read-out: LBD-M2H Gal4α (EC50 range)
pEC50: −log10 of the molar value.
Provide the reported pEC50 of each item.

Lookup: Using the record for N#Cc1sccc1-c1c(-c2cccc(C3CC3C(=O)O)c2)n(S(=O)(=O)c2ccc(Cl)cc2)c2ccc(F)cc12 (stereo not drawn) [3/24] , report its pEC50.
Found: > 7.00

Lookup: Now this one: COc1ccc(S(=O)(=O)n2c(-c3ccccc3)c(C3=C(C#N)CCCC3)c3ccccc32)cc1 [20/16]
Found: 6.00 to 7.00

Lookup: Would you mind doing Cc1ccc(S(=O)(=O)n2c(-c3cccc(-c4cccc(C(=O)O)c4)c3)c(-c3ccsc3C#N)c3ccccc32)cc1 [30/1] as well?
Found: 6.00 to 7.00

Lookup: Do the same for Cc1ncc(S(=O)(=O)n2c(-c3ccccc3)c(-c3ccsc3C#N)c3ccccc32)s1 [1/42] please
Found: > 7.00

Lookup: Could you do the same for N#Cc1sccc1-c1c(-c2cccc(OCC(=O)O)c2)n(S(=O)(=O)c2ccc(Cl)cc2)c2ccccc12 [3/51] , please?
Found: 6.00 to 7.00

Lookup: Here is the next compound: NC(=O)c1sccc1-c1c(-c2cccs2)n(S(=O)(=O)c2ccc(Cl)cc2)c2ccccc12 [Example 22]
Found: 6.00 to 7.00

Lookup: What do you have for COc1ccc(S(=O)(=O)n2c(-c3ccccc3)c(C3=C(C#N)c4ccccc4CC3)c3ccccc32)cc1 [20/19] ?
Found: 6.00 to 7.00

Lookup: Cool, now N#Cc1sccc1-c1c(-c2cccs2)n(S(=O)(=O)c2ccc(F)cc2F)c2ccccc12 [20/12]
Found: > 7.00

Lookup: // repeat for COc1ccc(S(=O)(=O)n2c(-c3ccccc3)c(-c3c(C#N)sc4ccccc34)c3ccccc32)cc1 [20/18] and report
Found: 6.00 to 7.00

Lookup: Subsequent entry: Cc1ccc(S(=O)(=O)n2c(-c3cccc(N4CC(C(=O)O)C4)c3)c(-c3ccsc3C#N)c3cc(Cl)ccc32)cc1 [3/44]
Found: > 7.00

Lookup: Do the same for Cc1ccc(S(=O)(=O)n2c(-c3cccc(C4CC4C(=O)O)c3)c(-c3ccc(F)cc3C#N)c3ccccc32)cc1 (stereo not drawn) [30/15] please
Found: 6.00 to 7.00

Lookup: Again, but for N#Cc1sccc1-c1c(-c2cc(Cl)cc(C3CC3C(=O)O)c2)n(S(=O)(=O)c2ccc(Cl)cc2)c2ccccc12 (stereo not drawn) [30/9]
Found: 6.00 to 7.00
